Origin of the recorded values: PubChem BioAssay (EPA / NIEHS)

# Read-out: Paternally Expressed 10 (PEG10), PEG10 (gene 23089)
# test.summary: LTEA_HepaRG_PEG10: Life Technologies and Expression Analysis (LTEA) Assay for Paternally Expressed 10 (PEG10) using HepaRG (AID 2283520)
# measurement.context: mRNA level, 48 h; actives raise or lower the signal
Calls of active or inactive are those of the source. Rule for the calls: active = hit-call score of the fitted dose curve at least 0.9, where 1 is the maximum; inactive = score below 0.9.
Mark one answer only. Choices: active, inactive

>>> category_label("CCCOc1ccc(S(=O)(=O)N2CCN(CC)CC2)cc1-c1nc2c(CC)n(Cc3ccccn3)nc2c(=O)[nH]1")
"inactive"
>>> category_label("CCc1cccc(CC)c1N")
"inactive"
>>> category_label("CCOC(N)=O")
"inactive"
>>> category_label("CCCCCCOC(=O)CC(CC(=O)OCCCCCC)(OC(=O)CCC)C(=O)OCCCCCC")
"inactive"
>>> category_label("CC(=O)c1ccccc1")
"inactive"

Q) Call for entry CC(C)C(=O)Nc1ccc([N+](=O)[O-])c(C(F)(F)F)c1 :
A) active

Q) Call for entry CCCCCCCCCCCCCCO :
A) inactive

----------
# system: Glucocorticoid receptor (Homo sapiens) (UniProt P04150)
# Sequence (P04150 whole entry, looked up): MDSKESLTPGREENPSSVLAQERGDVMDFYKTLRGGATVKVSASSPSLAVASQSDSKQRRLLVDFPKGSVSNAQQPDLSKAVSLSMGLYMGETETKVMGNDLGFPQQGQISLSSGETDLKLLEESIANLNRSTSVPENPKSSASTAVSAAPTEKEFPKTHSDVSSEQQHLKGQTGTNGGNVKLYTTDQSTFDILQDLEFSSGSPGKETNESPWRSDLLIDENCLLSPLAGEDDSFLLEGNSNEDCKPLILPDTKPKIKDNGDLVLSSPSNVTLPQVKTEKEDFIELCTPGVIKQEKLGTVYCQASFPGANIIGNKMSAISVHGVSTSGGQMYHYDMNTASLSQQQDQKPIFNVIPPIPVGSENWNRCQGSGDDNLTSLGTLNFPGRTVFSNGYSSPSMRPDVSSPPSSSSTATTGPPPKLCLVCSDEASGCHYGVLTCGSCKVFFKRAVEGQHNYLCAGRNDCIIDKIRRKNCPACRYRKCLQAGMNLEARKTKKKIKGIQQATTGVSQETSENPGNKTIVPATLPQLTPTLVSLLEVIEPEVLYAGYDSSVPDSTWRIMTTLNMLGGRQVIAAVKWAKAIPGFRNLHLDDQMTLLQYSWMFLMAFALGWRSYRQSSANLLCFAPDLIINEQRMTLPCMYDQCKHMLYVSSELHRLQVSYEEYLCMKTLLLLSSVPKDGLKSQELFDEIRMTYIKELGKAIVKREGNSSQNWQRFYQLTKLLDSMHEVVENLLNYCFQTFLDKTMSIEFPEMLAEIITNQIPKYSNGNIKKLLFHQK
# test.summary: ATG_GR_TRANS: Attagene TRANS-FACTORIAL HepG2 Assay for human Glucocorticoid Receptor (GR) (AID 2282978);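 note: activators score as hits since higher reporter transcript over DMSO is fitted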
# measurement.context: HepG2 Attagene TRANS GR reporter, mRNA transcription
Inconclusive results are not listed. Active and inactive are the calls of the source. How the source made its calls: active means hit-call score of the fitted dose curve at least 0.9, where 1 is the maximum; inconclusive means response in the unintended direction; inactive means score below 0.9.
observation.type: outcome

>>> reported("CCCCCCCC1CCC(=O)O1 (centres undefined)")
"inactive"
>>> reported("O=C(Cl)C(F)(F)C(F)(F)C(F)(F)C(=O)Cl")
"inactive"
>>> reported("C[C@@H](Oc1ccc(CNC(=O)c2cccnc2Oc2ccc3c(c2)OCO3)c(F)c1)C(=O)O")
"inactive"
>>> reported("CCCCC(CC)C(=O)OCCOCCOCCOC(=O)C(CC)CCCC (centres undefined)")
"inactive"

----------
# Read-out: ATP-citrate lyase (ACLY), ACLY (gene 47)
# test.summary: LTEA_HepaRG_ACLY: Life Technologies and Expression Analysis (LTEA) Assay for ATP-citrate lyase (ACLY) using HepaRG (AID 2283466)
# measurement.context: mRNA level, 48 h; actives raise or lower the signal
Active and inactive are the calls of the source. The calls were made as follows: active = hit-call score of the fitted dose curve at least 0.9, where 1 is the maximum; inactive = score below 0.9.
Mark one answer only. Choices: active, inactive

The examples below pair each entry with its known result.
>>> category_label("C=CN1CCCC1=O")
"inactive"
>>> category_label("c1ccc(C(O[C@@H]2CCCN(CCc3ccc4c(c3)OCO4)C2)c2ccccc2)cc1")
"inactive"
>>> category_label("Cc1nc(-c2ccccn2)ncc1C(=O)Nn1cc(C)c2cc(F)ccc21")
"inactive"
>>> category_label("CCOc1ccc2[nH]cc(C(=O)NCc3ccccc3)c(=O)c2n1")
"inactive"
>>> category_label("CC(C)c1nnc2ccc(-c3ocnc3-c3cc(F)ccc3F)cn12")
"inactive"
>>> category_label("CCCCCOC(C)=O")
"inactive"

Q) Call for entry NC(N)=O :
A) inactive

Q) Call for entry CCCCCCCCCC :
A) inactive

Q) Call for entry O=S(=O)(O)c1ccc(N=Nc2c(O)ccc3cc(S(=O)(=O)O)ccc23)cc1 :
A) inactive

Q) Call for entry Cn1cc[nH]c1=S :
A) inactive

Q) Call for entry CNC(C)=O :
A) inactive

Q) Call for entry Cc1nccn1-c1ccc(Sc2cccc(C3(C(N)=O)CCOCC3)c2)cc1 :
A) inactive

Q) Call for entry CCCCC(CC)C(=O)OCCOCCOCCOC(=O)C(CC)CCCC (centres undefined) :
A) inactive

Q) Call for entry OCCOCCOCCO :
A) inactive

Q) Call for entry O=S1(=O)CCCO1 :
A) inactive

Q) Call for entry OC(CCl)CCl :
A) inactive

Q) Call for entry CCCC(CCC)C(=O)O :
A) inactive

Q) Call for entry Cn1c(=O)c2[nH]cnc2n(C)c1=O :
A) inactive

Q) Call for entry CC(=O)c1ccccc1 :
A) inactive

Q) Call for entry CCCCCCCCN(C)C :
A) inactive

Q) Call for entry COc1cc2c(c(OC)c1OC)-c1ccc(OC)c(=O)cc1[C@@H](NC(C)=O)CC2 :
A) inactive

----------
# test.summary: ATG_TCF_b_cat_CIS: Attagene CIS-FACTORIAL HepG2 Assay for human T-Cell-Factor with beta-catenin (TCF/b-cat) (AID 2282965)
# measurement.context: HepG2 TCF/beta-catenin cis-reporter transcription, actives raise or lower the signal
Activity calls are given as the source filed them. The calls were made as follows: active = hit-call score of the fitted dose curve at least 0.9, where 1 is the maximum; inactive = score below 0.9.
Mark one answer only. Choices: 1 (active), -1 (inactive)

The examples below pair each entry with its known result.
>>> category_label("c1ccc2ncccc2c1")
-1
>>> category_label("CCCCOC(=O)c1ccccc1")
-1
>>> category_label("COCc1nnc(-c2ccc[n+]([O-])c2)n1-c1c(Cl)c(Cl)cc2[nH]c(=O)c(=O)[nH]c12")
-1
>>> category_label("CCc1cccc(CC)c1N")
-1
>>> category_label("NC(=O)NN=Cc1ccc([N+](=O)[O-])o1")
-1

Q) Call for entry CC1(C)C(=O)N(Cl)C(=O)N1Cl :
A) -1

Q) Call for entry CCCCCCCC1CCC(=O)O1 (configuration not stated) :
A) -1

Q) Call for entry S=P(N1CC1)(N1CC1)N1CC1 :
A) -1

Q) Call for entry OC(CCl)CCl :
A) -1

----------
# Read-out: growth arrest and DNA damage 45 (GADD45G), GADD45G (gene 10912)
# test.summary: LTEA_HepaRG_GADD45G: Life Technologies and Expression Analysis (LTEA) Assay for growth arrest and DNA damage 45 (GADD45G) using HepaRG (AID 2283499)
# measurement.context: mRNA level, 48 h; actives raise or lower the signal
Activity calls are given as the source filed them. The calls were made as follows: active = hit-call score of the fitted dose curve at least 0.9, where 1 is the maximum; inactive = score below 0.9.
Mark one answer only. Choices: yes (active), no (inactive)

>>> category_label("Cc1nccn1-c1ccc(Sc2cccc(C3(C(N)=O)CCOCC3)c2)cc1")
"yes"
>>> category_label("OC(CCl)CCl")
"no"
>>> category_label("CCCCN1C(=O)[C@@H]([C@H](O)C2CCCCC2)NC(=O)C12CCN(Cc1ccc(Oc3ccc(C(=O)O)cc3)cc1)CC2")
"yes"

Q) Call for entry O=S(=O)(O)c1ccc(N=Nc2c(O)ccc3cc(S(=O)(=O)O)ccc23)cc1 :
A) no

Q) Call for entry CCCCCCOC(=O)CC(CC(=O)OCCCCCC)(OC(=O)CCC)C(=O)OCCCCCC :
A) no

Q) Call for entry CCCCCCCC1CCC(=O)O1 (stereo unspecified) :
A) no

----------
# test.summary: ATG_Ets_CIS: Attagene CIS-FACTORIAL HepG2 Assay for human Erythroblast Transformation Specific (ETS) (AID 2282941)
# measurement.context: HepG2 ETS cis-reporter transcription, actives raise or lower the signal
The source made the active and inactive calls. The calls were made as follows: active = hit-call score of the fitted dose curve at least 0.9, where 1 is the maximum; inactive = score below 0.9.
Mark one answer only. Choices: active, inactive

>>> category_label("O=S(=O)(O)c1ccc(N=Nc2c(O)ccc3cc(S(=O)(=O)O)ccc23)cc1")
"inactive"
>>> category_label("C=CN1CCCC1=O")
"inactive"
>>> category_label("O=C(O)[C@H](O)[C@@H](O)C(=O)O")
"inactive"
>>> category_label("COCc1nnc(-c2ccc[n+]([O-])c2)n1-c1c(Cl)c(Cl)cc2[nH]c(=O)c(=O)[nH]c12")
"inactive"

Q) Call for entry CCCCCCOC(=O)CC(CC(=O)OCCCCCC)(OC(=O)CCC)C(=O)OCCCCCC :
A) inactive

Q) Call for entry CCCCCCCCCCCCCCO :
A) active

Q) Call for entry CC(C)C(=O)Nc1ccc([N+](=O)[O-])c(C(F)(F)F)c1 :
A) inactive

Q) Call for entry CCCCCCCCCC :
A) inactive

Q) Call for entry C[C@@H](Oc1ccc(CNC(=O)c2cccnc2Oc2ccc3c(c2)OCO3)c(F)c1)C(=O)O :
A) inactive

Q) Call for entry OCc1ccccc1 :
A) inactive

Q) Call for entry O=C(O)CO :
A) inactive

Q) Call for entry O=S(=O)(O)CCC(F)(F)C(F)(F)C(F)(F)C(F)(F)C(F)(F)C(F)(F)F :
A) inactive

Q) Call for entry OCc1c[nH]c2ccccc12 :
A) inactive

Q) Call for entry CCCCCCCC/C=C\CCCCCCCC(=O)OC[C@@H](O)[C@H]1OC[C@H](O)[C@H]1O :
A) inactive

Q) Call for entry O=C1CN(N=Cc2ccc([N+](=O)[O-])o2)C(=O)N1 :
A) inactive

Q) Call for entry NC(=O)N(O)[C@@H]1COc2cc(OCc3ccccc3)ccc21 :
A) inactive

Q) Call for entry CCc1cccc(CC)c1N :
A) inactive

Q) Call for entry c1ccc2ncccc2c1 :
A) inactive

Q) Call for entry Cc1ncc([C@@H](CCCCCCc2ccc3c(n2)NCCC3)CC(=O)O)cn1 :
A) inactive

----------
# Read-out: Intercellular Adhesion Molecule 1 (ICAM1), ICAM1 (gene 3383)
# test.summary: BSK_KF3CT_ICAM1: BioMAP Diversity Plus: KF3CT Assay for Intercellular Adhesion Molecule 1 (ICAM1) Biomarker Activity (AID 2283067)
# measurement.context: primary human keratinocytes with fibroblasts; actives raise or lower the signal
The source made the active and inactive calls. Rule for the calls: active = hit-call score of the fitted dose curve at least 0.9, where 1 is the maximum; inactive = score below 0.9.
Mark one answer only. Choices: active, inactive

The examples below pair each entry with its known result.
>>> category_label("C=CN1CCCC1=O")
"inactive"
>>> category_label("CCCCOC(=O)c1ccccc1")
"inactive"
>>> category_label("COc1cc2c(c(OC)c1OC)-c1ccc(OC)c(=O)cc1[C@@H](NC(C)=O)CC2")
"inactive"
>>> category_label("c1ccc2ncccc2c1")
"inactive"

Below: the item to evaluate.
Q) Call for entry CNC(C)=O :
A) inactive
